# measurement_target: K262R (2B6*4) (Homo sapiens, UniProt P20813, K262R)
# assay_notes: 7-MFC O-deethylation inhibition in standard reconstitution system
# condition_info: 7-MFC O-deethylation
observable: Increase in Ki, K262R compared with CYP2B6dH

# molecule, result_value
records = [
    ("Clc1ccccc1CN1CCc2sccc2C1 [Ticlopidine, ticlopidine]", "similar"),
    ("Clc1ccccc1C(c1ccccc1)(c1ccccc1)n1ccnc1 [Clotrimazole, clotrimazole]", "similar"),
    ("CCC(C)n1ncn(-c2ccc(N3CCN(c4ccc(OCC5COC(Cn6cncn6)(c6ccc(Cl)cc6Cl)O5)cc4)CC3)cc2)c1=O (stereo not shown) [Itraconazole, itraconazole]", "> 3 fold"),
    ("COC(=O)[C@H](c1ccccc1Cl)N1CCc2sccc2C1 [Clopidogrel, clopidogrel]", "4 fold"),
]
